Data credit: paper PMC12114633

System: normal C57BL/6J mice
protocolText: Oral sucrose test, postprandial blood glucose
Format: in vivo
condition: 100 mg/kg oral, 30 min after sucrose 4 g/kg, n = 8; in mmol/L (unit assumed)
Record form. Attribute: Blood glucose levels. Fill in for each entry.
Number only, no unit.

Reported Blood glucose levels for COc1ccc(C2COc3cc(O)ccc3C2)c(O)c1OC (stereo not drawn) was 13.24

Measured Blood glucose levels, O=c1c(O)c(-c2ccc(O)cc2)oc2cc(O)cc(O)c12 : 11.88

Blood glucose levels measured on Oc1ccc([C@H]2COc3cc(O)ccc3C2)cc1 = 12.56

Entry under test: O=c1c(-c2ccc(O)cc2)coc2cc(O)cc(O)c12 . Its Blood glucose levels was 12.06

compound O=c1c(O)c(-c2ccc(O)c(O)c2)oc2cc(O)cc(O)c12 , Blood glucose levels observed: 12.26

Short answer for O=C1C[C@@H](c2ccc(O)cc2)Oc2cc(O)ccc21 : Blood glucose levels was 11.58

For reference, reported Blood glucose levels for COc1cc(-c2oc3cc(O)cc(O)c3c(=O)c2OC2OC(CO)C(O)C(O)C2O)ccc1O (stereo not drawn) [C14, isorhamnetin-3-O-glucoside] stands at 12.19

Recorded result, COc1ccc2c(c1OC)OC1c3ccc(O[C@@H]4O[C@H](CO)[C@@H](O)[C@H](O)[C@H]4O)cc3OCC21 (stereo partly drawn) [C19, astrapterocarpan-3-O-glucoside] , Blood glucose levels: 13.31

Measured Blood glucose levels, O=C1C[C@@H](c2ccc(O)cc2)Oc2cc(O)cc(O)c21 : 12.39

----------
experimentalTarget: α-glucosidase (Saccharomyces cerevisiae, UniProt P53341)
Construct: purchased Shanghai Yuanye Biotechnology Co., Shanghai, China Lot No. M23HS178879 (catalogue number not given)
Sequence (P53341 whole entry): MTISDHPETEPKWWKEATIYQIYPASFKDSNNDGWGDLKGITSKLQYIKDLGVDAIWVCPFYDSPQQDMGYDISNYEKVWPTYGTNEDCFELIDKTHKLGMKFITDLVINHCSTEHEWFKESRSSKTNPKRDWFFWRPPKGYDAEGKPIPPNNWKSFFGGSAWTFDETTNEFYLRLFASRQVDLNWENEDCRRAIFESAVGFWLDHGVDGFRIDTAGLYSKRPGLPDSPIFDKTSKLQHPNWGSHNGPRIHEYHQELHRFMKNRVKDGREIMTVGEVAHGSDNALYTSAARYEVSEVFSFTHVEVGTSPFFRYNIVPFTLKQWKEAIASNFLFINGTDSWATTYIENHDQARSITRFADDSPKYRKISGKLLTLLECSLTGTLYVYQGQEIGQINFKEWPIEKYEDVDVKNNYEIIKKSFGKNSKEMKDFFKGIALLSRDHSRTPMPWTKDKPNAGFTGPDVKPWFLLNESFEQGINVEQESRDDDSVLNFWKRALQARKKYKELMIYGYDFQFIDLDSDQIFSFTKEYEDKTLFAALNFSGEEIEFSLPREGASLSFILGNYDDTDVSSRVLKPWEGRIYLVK
protocolText: CD spectroscopy, secondary structure of α-glucosidase (BeStSel)
condition: molar ratio 10:1, α-glucosidase 4 μM; free enzyme 11.7
measure: β-turn (%)
Give the quantity in %, number only.

compound O=c1c(-c2ccc(O)cc2)coc2cc(O)ccc12 [C11, daidzein] , β-turn observed: 12.7

For O=C1C[C@@H](c2ccc(O)cc2)Oc2cc(O)ccc21 [C3, liquiritigenin] the compound record lists β-turn as 14.2

Measured β-turn, COc1ccc(-c2coc3cc(O[C@@H]4O[C@H](CO)[C@@H](O)[C@H](O)[C@H]4O)ccc3c2=O)cc1O [C16, calycosin-7-O-glucoside] : 11.7

Quick note, β-turn for C[C@@H]1O[C@@H](OC[C@H]2O[C@@H](Oc3c(-c4ccc(O)c(O)c4)oc4cc(O)cc(O)c4c3=O)[C@H](O)[C@@H](O)[C@@H]2O)[C@H](O)[C@H](O)[C@H]1O [C6, rutin] landed at 12.1

Short answer for O=C1c2ccc(O)cc2OCC1c1ccc(O)cc1 (stereo not shown) [C28, dihydrodaidzein] : β-turn was 14.4

Summary for this compound, Oc1ccc([C@H]2COc3cc(O)ccc3C2)cc1 [C29, equol] : β-turn is 14.5

For this compound ( O=C(/C=C/c1ccc(O)cc1)c1ccc(O)cc1O [C4, isoliquiritigenin] ), measured β-turn is 11.7

----------
experimentalTarget: α-glucosidase (Saccharomyces cerevisiae)
Construct: purchased Shanghai Yuanye Biotechnology Co., Shanghai, China Lot No. M23HS178879 (catalogue number not given)
protocolText: CD spectroscopy, secondary structure of α-glucosidase (BeStSel)
condition: molar ratio 40:1, α-glucosidase 4 μM; free enzyme 28.8
Kindly supply the reported β-sheet values for the records listed here.
The reply must contain the numeric value and, after it, the unit.

β-sheet value, target or system α-glucosidase (Saccharomyces cerevisiae), for O=C1C[C@@H](c2ccc(O)cc2)Oc2cc(O)cc(O)c21 [C5, naringenin] : 25.3%

α-glucosidase (Saccharomyces cerevisiae) data for Oc1ccc([C@H]2COc3cc(O)ccc3C2)cc1 [C29, equol] ; its β-sheet: 23.4%

O=c1c(-c2ccc(O)cc2)coc2cc(O)ccc12 [C11, daidzein] tested on α-glucosidase (Saccharomyces cerevisiae) gave β-sheet: 25.5%

α-glucosidase (Saccharomyces cerevisiae) data for O=c1c(O[C@@H]2O[C@H](CO)[C@@H](O)[C@H](O)[C@H]2O)c(-c2ccc(O)c(O)c2)oc2cc(O)cc(O)c12 [C10, isoquercitrin] ; its β-sheet: 16.6%

Bench note, α-glucosidase (Saccharomyces cerevisiae): entry COc1ccc(-c2coc3cc(O[C@@H]4O[C@H](CO)[C@@H](O)[C@H](O)[C@H]4O)ccc3c2=O)cc1O [C16, calycosin-7-O-glucoside] , its β-sheet = 27.7%

Param item: O=C(/C=C/c1ccc(O)cc1)c1ccc(O)cc1O [C4, isoliquiritigenin] ; param system: α-glucosidase (Saccharomyces cerevisiae); output β-sheet: 24.1%

Note to self: β-sheet of O=c1c(O)c(-c2ccc(O)cc2)oc2cc(O)cc(O)c12 [C2, kaempferol] with α-glucosidase (Saccharomyces cerevisiae) was 23.9%

Lab entry: α-glucosidase (Saccharomyces cerevisiae) assay, compound O=C1c2ccc(O)cc2OCC1c1ccc(O)cc1 (centres unmarked) [C28, dihydrodaidzein] , β-sheet = 20.7%
